# target.under.test: h-GABA-A α5β3γ2 (Homo sapiens, UniProt P18507+P31644)
# Sequence (P31644 32-462): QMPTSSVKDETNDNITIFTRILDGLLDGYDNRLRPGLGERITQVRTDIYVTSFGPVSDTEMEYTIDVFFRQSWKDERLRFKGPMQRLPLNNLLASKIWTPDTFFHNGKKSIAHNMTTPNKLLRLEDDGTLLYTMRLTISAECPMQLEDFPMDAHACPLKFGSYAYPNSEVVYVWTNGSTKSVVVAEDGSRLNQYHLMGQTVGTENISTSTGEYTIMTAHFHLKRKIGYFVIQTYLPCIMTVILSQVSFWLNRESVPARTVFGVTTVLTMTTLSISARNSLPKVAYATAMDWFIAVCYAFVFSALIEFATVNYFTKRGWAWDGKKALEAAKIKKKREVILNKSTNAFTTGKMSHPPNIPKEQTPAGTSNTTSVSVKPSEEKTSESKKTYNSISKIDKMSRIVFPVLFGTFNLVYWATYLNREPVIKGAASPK
# Sequence (P28472 26-473 partner): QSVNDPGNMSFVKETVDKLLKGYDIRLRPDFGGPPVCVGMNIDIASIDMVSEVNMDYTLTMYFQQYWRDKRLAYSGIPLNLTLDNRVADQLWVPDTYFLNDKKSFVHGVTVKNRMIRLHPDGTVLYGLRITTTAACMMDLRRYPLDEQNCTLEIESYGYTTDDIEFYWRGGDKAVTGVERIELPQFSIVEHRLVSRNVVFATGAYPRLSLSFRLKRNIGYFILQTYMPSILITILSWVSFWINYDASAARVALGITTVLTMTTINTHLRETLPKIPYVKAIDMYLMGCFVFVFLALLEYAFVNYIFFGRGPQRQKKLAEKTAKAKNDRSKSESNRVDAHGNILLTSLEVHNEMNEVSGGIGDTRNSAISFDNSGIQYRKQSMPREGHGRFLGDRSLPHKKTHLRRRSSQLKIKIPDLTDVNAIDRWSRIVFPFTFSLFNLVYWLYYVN
# Sequence (P18507 40-475): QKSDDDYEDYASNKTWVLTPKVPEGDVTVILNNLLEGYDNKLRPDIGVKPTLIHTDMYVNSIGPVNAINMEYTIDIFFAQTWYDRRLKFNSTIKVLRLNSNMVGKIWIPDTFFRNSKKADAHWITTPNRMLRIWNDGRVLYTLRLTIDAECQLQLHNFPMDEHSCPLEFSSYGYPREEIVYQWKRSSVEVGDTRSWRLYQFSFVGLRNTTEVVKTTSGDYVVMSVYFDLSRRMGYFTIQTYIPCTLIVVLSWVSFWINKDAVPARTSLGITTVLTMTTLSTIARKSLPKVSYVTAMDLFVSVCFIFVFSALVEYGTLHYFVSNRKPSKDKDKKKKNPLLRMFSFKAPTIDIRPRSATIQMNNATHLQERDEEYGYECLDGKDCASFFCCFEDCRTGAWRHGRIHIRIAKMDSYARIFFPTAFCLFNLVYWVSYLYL
# test.method.notes: Two-electrode voltage clamp electrophysiology in Xenopus laevis oocytes expressing GABAA receptors, modulation of GABA EC20 current
# Format: cell-based
# Parameters: host or cells: Xenopus laevis oocytes micro-injected with RNA transcripts of the subunits
# measurement.setup: reference compounds, Table 2
attribute.measured: Fold increase h-GABA-A α5β3γ2 oocyte

compound	quantitative.result
Cc1onc(-c2ccc(Cl)cn2)c1COc1ccc(C(=O)N2CCOCC2)cn1 [RO-309, reference compound]	0.83
Cc1cc(C)n(-c2ccc(OCc3c(-c4ccccc4)noc3C)nn2)n1 [RO-039, reference compound]	0.83
Cc1onc(-c2ccccc2)c1COc1ccc(N2CCCC2)nn1 [RO-035, reference compound]	0.65
Cc1onc(-c2ccccc2)c1COc1ccc(C(=O)N2CCOCC2)nn1 [RO-096, reference compound]	0.84
Cc1onc(-c2ccccc2)c1COc1ccc(N2CCOCC2)nn1 [RO-036, reference compound]	0.72

---

# target.under.test: h-GABA-A α5β3γ2 (Homo sapiens, UniProt P18507+P31644)
# test.method.notes: Two-electrode voltage clamp electrophysiology in Xenopus laevis oocytes expressing GABAA receptors, modulation of GABA EC20 current
# Format: cell-based
# Parameters: host or cells: Xenopus laevis oocytes micro-injected with RNA transcripts of the subunits
# measurement.setup: test compound at approx. 30 fold its Ki, GABA at EC20; Table 1

compound	Fold increase h-GABA-A α5β3γ2 oocyte
Cc1ccc(-c2noc(C)c2Cn2ncc(N3CCN(CC(F)(F)F)CC3)cc2=O)cn1 [Example 31]	2.45
Cc1ccc(-c2noc(C)c2Cn2ncc(N3CCOCC3)cc2=O)cn1 [Example 22]	2.66
Cc1ccc(-c2noc(C)c2Cn2ncc(-c3ccc(N(C)C)nc3)cc2=O)cn1 [Example 116]	1.84
Cc1ccc(-c2noc(C)c2Cn2ncc(N3CCC4(CC3)CC(F)CCO4)cc2=O)nn1 (single isomer, unassigned) [Example 327]	2.22

---

# target.under.test: h-GABA-A α5β3γ2 (Homo sapiens, UniProt P18507+P31644)
# test.method.notes: Two-electrode voltage clamp electrophysiology in Xenopus laevis oocytes expressing GABAA receptors, modulation of GABA EC20 current
# Format: cell-based
# Set-up: host or cells: Xenopus laevis oocytes micro-injected with RNA transcripts of the subunits
# measurement.setup: % modulation of GABA EC20 = 100*(Fold increase-1); Table 1
attribute.measured: Efficacy (GABA) % (%)

compound	target.under.test	measure.unit	quantitative.result
Cc1onc(-c2ccc(Cl)nc2)c1Cn1ncc(N2CC3(CCC(C(F)(F)F)CO3)C2)cc1=O (single isomer, unassigned)	h-GABA-A α5β3γ2 (Homo sapiens, UniProt P18507+P31644)	%	76
Cc1ccc(-c2noc(C)c2Cn2ncc(-c3ccnc(N4CCNCC4)c3)cc2=O)cn1	h-GABA-A α5β3γ2 (Homo sapiens, UniProt P18507+P31644)	%	165
Cc1ccc(-c2noc(C)c2Cn2ncc(N3CC(Oc4ccncc4)C3)cc2=O)cn1	h-GABA-A α5β3γ2 (Homo sapiens, UniProt P18507+P31644)	%	198
Cc1ccc(-c2noc(C)c2Cn2ncc(-c3ccnc(OC(F)F)c3)cc2=O)cn1	h-GABA-A α5β3γ2 (Homo sapiens, UniProt P18507+P31644)	%	86
Cc1ccc(-c2noc(C)c2Cn2ncc(N3CC[C@@H](C(=O)NC4CC4)C3)cc2=O)cn1	h-GABA-A α5β3γ2 (Homo sapiens, UniProt P18507+P31644)	%	247
CCOc1ccc(-c2cnn(Cc3c(-c4ccc(C)nc4)noc3C)c(=O)c2)cn1	h-GABA-A α5β3γ2 (Homo sapiens, UniProt P18507+P31644)	%	119
Cc1ccc(-c2noc(C)c2Cn2ncc(-c3cnn(C(F)F)c3)cc2=O)cn1	h-GABA-A α5β3γ2 (Homo sapiens, UniProt P18507+P31644)	%	244
Cc1ccc(-c2nocc2Cn2ncc(N3CCO[C@@H](C)C3)cc2=O)cn1	h-GABA-A α5β3γ2 (Homo sapiens, UniProt P18507+P31644)	%	157

These data points were gathered from patent US11840528B2.
